Attribute: logP
- Test Details: Partition coefficient, log P by octanol-water partitioning method
- Type: physicochemical
Write the value as a bare number.

Smiles Entry: CC(C)c1nc(N(C)S(C)(=O)=O)nc(-c2ccc(F)cc2)c1/C=C/[C@@H](O)C[C@@H](O)CC(=O)O
logP: -0.37

Query compound follows.
Request: Consider the compound shown here: "CC(C)c1nc(N(C)c2ncnn2C)nc(-c2ccc(F)cc2)c1/C=C/[C@@H](O)C[C@@H](O)CC(=O)O" What is its recorded logP?
Response: 0.3

----------
- Test Details: Metabolic stability in human assessed as hepatic extraction
- Protocol Conditions: in vivo
Value Type: hepatic extraction ratio
Write the value as a bare number.

Request: Consider the compound shown here: "CC(C)c1nc(N(C)S(C)(=O)=O)nc(-c2ccc(F)cc2)c1/C=C/[C@@H](O)C[C@@H](O)CC(=O)O" What is its recorded hepatic extraction ratio?
Response: 0.9
